# System name: Efb-A30-67 (Staphylococcus aureus strain Newman, UniProt P08515 1-218 = GST; A6QG59 30-67)
# Protocol details: apparent Kd from half-maximal binding in ELISA (GraphPad Prism)
Parameter: pKd. Scope: all listed entries.
On this scale, pKd is minus log10 of a concentration expressed in M (mol/L).

Known pKd results, listed for orientation:
- Binder: "FBE5-F11 (scFv, V domains shown) VH: QVQLQESGGGVVQPGRSLRLSCAASGFTFSSYGMHWVRQAPGKGLEWVAVISYDGSNKYYADSVKGRFTISRDNSKNTLYLQMNSLRAEDTAVYYCAKDLASSGFDYWGQGTLVTVSS VL: QSVLTQPPSVSAAPGQKVTISCSGSSSNIGNNYVSWYQQLPGTAPKLLIYDNNKRPSGIPDRFSGSKSGTSATLGITGLQTGDEADYYCGTWDSSLSAEVFGGGTKLTVL"
  Measure: "pKd"
  Value: 9.32
- Binder: "FBE5-D9 (scFv, V domains shown) VH: QVQLVESGGGVVQPGRSLRLSCAASGFTFSSYGMHWVRQAPGKGLEWVAVISYDGSNKYYADSVKGRFTISRDNSKNTLYLQMNSLRAEDTAVYYCAKNQEWLVPGYWGQGTLVTVSS VL: QSALTQPASVSGSPGQSITISCTGTSSDVGGYNYVSWYQQHPGKAPKLMIYDVSNRPSGVSNRFSGSKSGNTASLTISGLQAEDEADYYCSSYTSSSTLVFGGGTKLTVL"
  Measure: "pKd"
  Value: 8.35
- Binder: "FBE5-C1 (scFv, V domains shown) VH: EVQLVETRGGVVQPGRSLRLSCAASGFTFSSYGMHWVRQAPGKGLEWVAVISYDGSNKYYADSVKGRFTISRDNSKNTLYLQMNSLRAEDTAVYYCAREGTYYYDSSGYYEGGFDYWGQGTLVTVSS VL: QSVLTQPPSASGTPGQRVTISCSGSSSNIGSGPVNWYQQLPGTAPKLLIYSDTRRPSGIPDRLSGSKSGTSASLGISGLQSEDEADYYCAAWDDSLNGYAFGSGTKVTVL"
  Measure: "pKd"
  Value: 7.39
- Binder: "FBE5-B9 (scFv, V domains shown) VH: EVQLVESRGGVVQPGRSLRLSCAASGFTFSSYGMHWVRQAPGRGLEWVAVISYDGSNKYYADSVKGRFTISRDNSKNTLYLQMNGLRSDDTAVYYCARGGDDYGDYFDYWGQGTLVTVSS VL: QSVLTQPPSVSAAPGQKVTISCSGSSSNIGNNYVSWYQQLPGTAPKLLIYDNNKRPSGIPDRFSGSKSGTSATLGITGLQTGDEADYYCGTWDSSLSAAVFGGGTKLTVL"
  Measure: "pKd"
  Value: 7.59

get_value(item= FBE5-F9 (scFv, V domains shown) VH: QMQLVQSGGGVVQPGRSLRLSCAASGFTFSSYGMHWVRQAPGKGLEWVAVISYDGSNKYYADSVKGRFTISRDNSKNTLYLQMNSLRAEDTAVYYCAKEGDGDYGGVLDYWGQGTLVTVSS VL: QSVLTQPPSVSAAPGQKVTISCSGSSSNIEKNYVSWYQQLPGTAPKLLIYDNNKRPSGIPDRFSGSKSGTSATLGITGLQTGDEADYYCGTWDSSLSAVVFGGGTKLTVL , readout=pKd) returns 7.67
